Biological target: DNA-PK (Homo sapiens (Human))
Test: DNA-PK assay (biochemical), flashplate 33P-ATP kinase assay
Settings: Table 5
pIC50: −log10 of the molar value.
Readings of pIC50 for the listed molecules

Task: Fill blank: measured pIC50 of the molecule Cc1nc(C(O)c2ccc(F)c(-c3ncnc4cc(N5CCOCC5)ccc34)c2)sc1CO (centres unmarked) [Example 200] is ____.
Output: 8.15 to 8.52

Task: Fill blank: measured pIC50 of the molecule OC(c1ccc(F)c(-c2ncnc3cc(N4CCOCC4)sc23)c1)c1nccs1 (racemic) [Example 144] is ____.
Output: > 8.52

Task: Fill blank: measured pIC50 of the molecule OC(c1nccs1)c1cc(-c2ncnc3cc(N4CCOCC4)ccc23)ccc1F (centres unmarked) [Example 170] is ____.
Output: 7.52 to 8.15

Task: Fill blank: measured pIC50 of the molecule Cc1nc(C(O)c2cc(-c3ncnc4cc(N5CCOCC5)ccc34)cnc2F)sc1C (centres unmarked) [Example 205] is ____.
Output: 7.52 to 8.15

Task: Fill blank: measured pIC50 of the molecule Cc1nc([C@H](O)c2cnc(F)c(-c3ncnc4cc(N5CCOCC5)ncc34)c2)sc1C [Example 204] is ____.
Output: < 7.52

----------
Target: DNA-PK phosphorylation at serine 2056 (Homo sapiens (Human))
Assay: DNA-PK phosphorylation at serine 2056 (cellular), bleomycin-treated HCT116 cells, ELISA
Format: cell-based
Settings: cellular DNA-PK phosphorylation at serine 2056, HCT116; read-out: IC50 pDNA-PK
measured parameter: IC50

Below, 5 compounds whose answers are already recorded.
OC(c1cc(-c2ncnc3cc(N4CCOCC4)ccc23)c(F)cc1F)c1nccnc1OC(F)F (centres unmarked) [Example 450] :: 5 to 10 µM
OC(c1cc(-c2ncnc3cc(N4CCOCC4)ccc23)c(F)cc1Cl)c1nccn2ccnc12 (single isomer, unassigned) [Example 396] :: < 0.5 µM
OC(c1cc(-c2ncnc3cc(N4CCOCC4)ccc23)ccc1F)c1ncnc2sccc12 (centres unmarked) :: < 0.5 µM
CN1N=C(C(O)c2cc(-c3ncnc4cc(N5CCOCC5)ccc34)c(F)cc2Cl)CCC1=O (centres unmarked) :: 5 to 10 µM
CCn1c(C(O)c2ccc(F)c(-c3ncnc4cc(N5CCOCC5)ccc34)c2)cccc1=O (centres unmarked) :: 0.5 to 5 µM

Task: Fill blank: measured IC50 of the compound Cc1nccnc1C(O)c1ccc(F)c(-c2ncnc3cc(N4CCOCC4)c(F)cc23)c1 (centres unmarked) is ____.
Output: 10 to 30 µM

Task: Fill blank: measured IC50 of the compound OC(c1cc(-c2ncnc3cc(N4CCOCC4)ccc23)ccc1Cl)c1ncnn2cccc12 (centres unmarked) is ____.
Output: 0.5 to 5 µM

Task: Fill blank: measured IC50 of the compound OC(c1ccc(F)c(-c2ncnc3cc(N4CCOCC4)ccc23)c1)c1nccnc1C(F)(F)F (centres unmarked) is ____.
Output: < 0.5 µM

----------
Molecular target: DNA-PK phosphorylation at serine 2056 (Homo sapiens (Human))
Experiment: DNA-PK phosphorylation at serine 2056 (cellular), bleomycin-treated HCT116 cells, ELISA
Type: cell-based
Settings: cellular DNA-PK phosphorylation at serine 2056, HCT116; read-out: IC50 pDNA-PK
measured parameter: IC50

OC(c1cc(-c2ncnc3cc(N4CCOCC4)ccc23)c(F)cc1F)c1nccn2cccc12 (centres unmarked) :: < 0.5 µM
COc1nccnc1C(C(N)=O)c1cc(-c2ncnc3cc(N4CCOCC4)ccc23)ccc1Cl (centres unmarked) :: 5 to 10 µM
OC(c1cn2ccsc2n1)c1cc(-c2ncnc3cc(N4CCOCC4)ccc23)c(F)cc1F (centres unmarked) :: 10 to 30 µM

Task: Fill blank: measured IC50 of the compound OC(c1ccc(F)c(-c2ncnc3cc(N4CCOCC4)ccc23)c1)c1ncccc1Cl (centres unmarked) [Example 465] is ____.
Output: < 0.5 µM

Task: Fill blank: measured IC50 of the compound COc1nnc(Cl)cc1C(O)c1ccc(F)c(-c2ncnc3cc(N4CCOCC4)ccc23)c1 (centres unmarked) is ____.
Output: 5 to 10 µM

Task: Fill blank: measured IC50 of the compound Cn1nc(C(O)c2ccc(F)c(-c3ncnc4cc(N5CCOCC5)ccc34)c2)ccc1=O (centres unmarked) is ____.
Output: 0.5 to 5 µM

Task: Fill blank: measured IC50 of the compound Cc1nccnc1C(O)c1ccc(F)c(-c2ncnc3cc(N4CCOCC4)cc(F)c23)c1 (centres unmarked) is ____.
Output: < 0.5 µM

Task: Fill blank: measured IC50 of the compound [2H]C1([2H])OC([2H])([2H])C([2H])([2H])N(c2ccc3c(-c4cc([C@H](O)c5nccnc5C)ccc4F)ncnc3c2)C1([2H])[2H] is ____.
Output: 0.5 to 5 µM

Task: Fill blank: measured IC50 of the compound Cc1nccnc1C(C(N)=O)c1ccc(F)c(-c2ncnc3cc(N4CCOCC4)ccc23)c1 (centres unmarked) is ____.
Output: 10 to 30 µM

----------
Target: Kv11.1 (hERG) (Homo sapiens (Human))
Sequence (Q12809 whole entry): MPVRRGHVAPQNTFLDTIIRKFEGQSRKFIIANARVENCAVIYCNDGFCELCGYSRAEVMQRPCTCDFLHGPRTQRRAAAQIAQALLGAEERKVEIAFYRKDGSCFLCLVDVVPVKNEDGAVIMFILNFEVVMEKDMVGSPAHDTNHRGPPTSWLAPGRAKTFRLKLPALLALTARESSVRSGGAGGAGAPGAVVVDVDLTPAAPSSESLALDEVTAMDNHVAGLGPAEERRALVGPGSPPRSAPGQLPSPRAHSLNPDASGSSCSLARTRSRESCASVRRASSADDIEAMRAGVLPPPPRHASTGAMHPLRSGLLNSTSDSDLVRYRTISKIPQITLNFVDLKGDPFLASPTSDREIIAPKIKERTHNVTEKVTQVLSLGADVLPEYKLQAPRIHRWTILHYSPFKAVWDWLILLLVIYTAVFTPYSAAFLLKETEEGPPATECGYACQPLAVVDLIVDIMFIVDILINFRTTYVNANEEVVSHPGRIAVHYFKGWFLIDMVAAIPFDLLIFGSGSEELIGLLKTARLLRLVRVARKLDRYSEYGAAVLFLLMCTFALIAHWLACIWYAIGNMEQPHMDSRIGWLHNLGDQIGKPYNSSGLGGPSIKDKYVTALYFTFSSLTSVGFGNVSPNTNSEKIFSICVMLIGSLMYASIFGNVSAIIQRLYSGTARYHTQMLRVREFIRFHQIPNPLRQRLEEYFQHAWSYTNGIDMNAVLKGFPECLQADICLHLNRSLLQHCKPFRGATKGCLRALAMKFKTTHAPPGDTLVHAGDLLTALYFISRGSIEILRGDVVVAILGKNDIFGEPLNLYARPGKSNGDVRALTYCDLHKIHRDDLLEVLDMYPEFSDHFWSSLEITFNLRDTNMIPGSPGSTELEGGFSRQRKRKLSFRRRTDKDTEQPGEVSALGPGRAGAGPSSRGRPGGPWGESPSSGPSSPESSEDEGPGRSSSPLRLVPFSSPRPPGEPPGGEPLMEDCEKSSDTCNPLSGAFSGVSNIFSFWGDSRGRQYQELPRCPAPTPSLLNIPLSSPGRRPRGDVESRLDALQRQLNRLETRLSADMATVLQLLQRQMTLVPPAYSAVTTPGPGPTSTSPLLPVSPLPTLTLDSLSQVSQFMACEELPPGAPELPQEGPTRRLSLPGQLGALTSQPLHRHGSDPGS
Experiment: Kv11.1 (hERG) ion channel activity (patch clamp assay), HEK293 cells transfected with hERG gene
Conditions: Ki [Kv1.11 hERG], Table 5
Readings of Ki for the listed compounds

Below, 6 compounds whose answers are already recorded.
CC(O)c1csc(C(O)c2cc(-c3ncnc4cc(N5CCOCC5)ccc34)c(F)cc2Cl)n1 (centres unmarked) :: 15 to 25 µM
Cc1nc([C@H](O)c2cnc(F)c(-c3ncnc4cc(N5CCOCC5)ncc34)c2)sc1C :: 10 to 15 µM
CNCc1csc(C(O)c2cc(-c3ncnc4cc(N5CCOCC5)ccc34)c(F)cc2Cl)n1 (centres unmarked) :: 10 to 15 µM
OC(c1ccc(-c2ncnc3cc(N4CCOCC4)ccc23)s1)c1nccs1 (centres unmarked) :: 10 to 15 µM
CCn1cc(C(O)c2cc(-c3ncnc4cc(N5CCOCC5)ccc34)c(F)cc2Cl)cn1 (centres unmarked) :: 15 to 25 µM
OC(c1cccc(-c2ncnc3cc(N4CCOCC4)ccc23)c1)c1nccs1 (centres unmarked) :: 10 to 15 µM

Task: Param readout= Ki; system= Kv11.1 (hERG) (Homo sapiens (Human)); entry= OC(c1cnc(F)c(-c2ncnc3cc(N4CCOCC4)ccc23)c1)c1nccs1 (centres unmarked) ; returns value.
Output: 15 to 25 µM

Task: Param readout= Ki; system= Kv11.1 (hERG) (Homo sapiens (Human)); entry= CC(O)(c1cccc(-c2ncnc3cc(N4CCOCC4)ccc23)c1)c1nccs1 (centres unmarked) ; returns value.
Output: 15 to 25 µM

Task: Param readout= Ki; system= Kv11.1 (hERG) (Homo sapiens (Human)); entry= CC(O)(c1ccc(F)c(-c2ncnc3cc(N4CCOCC4)ccc23)c1)c1nccs1 (centres unmarked) ; returns value.
Output: 10 to 15 µM

Task: Param readout= Ki; system= Kv11.1 (hERG) (Homo sapiens (Human)); entry= Cc1nc(C(O)c2cc(-c3ncnc4cc(N5CCOCC5)ccc34)cnc2F)sc1C (centres unmarked) [Example 206] ; returns value.
Output: 15 to 25 µM

Task: Param readout= Ki; system= Kv11.1 (hERG) (Homo sapiens (Human)); entry= OCc1csc(C(O)c2cc(-c3ncnc4cc(N5C6CCC5COC6)ccc34)c(F)cc2Cl)n1 (centres unmarked) ; returns value.
Output: 15 to 25 µM

Task: Param readout= Ki; system= Kv11.1 (hERG) (Homo sapiens (Human)); entry= CC(O)(c1cncc(-c2ncnc3cc(N4CCOCC4)ccc23)c1)c1nccs1 (centres unmarked) ; returns value.
Output: 15 to 25 µM

Task: Param readout= Ki; system= Kv11.1 (hERG) (Homo sapiens (Human)); entry= Cc1nc(C(O)c2cc(-c3ncnc4cc(N5CCOCC5)ncc34)cnc2F)sc1C (centres unmarked) ; returns value.
Output: 10 to 15 µM

Task: Param readout= Ki; system= Kv11.1 (hERG) (Homo sapiens (Human)); entry= OCc1csc(C(O)c2cc(-c3ncnc4cc(N5CCOCC5)ncc34)c(F)cc2Cl)n1 (centres unmarked) ; returns value.
Output: 15 to 25 µM

Task: Param readout= Ki; system= Kv11.1 (hERG) (Homo sapiens (Human)); entry= Cc1nc(C(O)c2cc(-c3ncnc4cc(N5CCOCC5)ccc34)cnc2F)sc1C (centres unmarked) [Example 205] ; returns value.
Output: 10 to 15 µM

Task: Param readout= Ki; system= Kv11.1 (hERG) (Homo sapiens (Human)); entry= Cc1csc(C(O)c2cnc(F)c(-c3ncnc4cc(N5CCOCC5)ncc34)c2)n1 (centres unmarked) ; returns value.
Output: 15 to 25 µM

Task: Param readout= Ki; system= Kv11.1 (hERG) (Homo sapiens (Human)); entry= OC(c1ccc(F)c(-c2ncnc3cc(N4CCOCC4)ncc23)c1)c1nccs1 (centres unmarked) ; returns value.
Output: 15 to 25 µM
